Target: T1, His-tagged CEACAM1 (human, UniProt P13688 35-428)
T1 construct: 45 kDa SPR analyte; also called CEACAM1-HIS; CEACAM1 analyte
T1 sequence: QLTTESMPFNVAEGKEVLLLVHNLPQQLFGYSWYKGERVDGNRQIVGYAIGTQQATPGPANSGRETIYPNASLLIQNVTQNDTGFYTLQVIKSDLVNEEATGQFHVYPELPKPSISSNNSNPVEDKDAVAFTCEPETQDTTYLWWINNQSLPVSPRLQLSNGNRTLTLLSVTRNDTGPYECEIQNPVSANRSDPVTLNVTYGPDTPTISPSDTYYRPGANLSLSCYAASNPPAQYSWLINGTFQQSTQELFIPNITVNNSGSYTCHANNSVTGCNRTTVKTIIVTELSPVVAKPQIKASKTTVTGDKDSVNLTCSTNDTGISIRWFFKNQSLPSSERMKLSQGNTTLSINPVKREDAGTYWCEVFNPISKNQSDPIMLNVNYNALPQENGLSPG
Test: SPR single-cycle, supernatant IgG captured
So basically: relative KD to parent at 1 or higher? That is Met. Lower than 1? That is Not met.

binder="CP08B11/Vκ8 S29A (antibody, IgG4, V domains shown, IgG4 (S241P), kappa) VH: EVQLLESGGGLVQPGGSLRLSCAASGFTFTNHGMSWVRQAPGKGLEWVATISSGGTYTYYPDSVKGRFTISRDNSKNTLYLQMNSLKAEDTAMYYCARHDFDYDAAWFAYWGQGTLVTVSS VL: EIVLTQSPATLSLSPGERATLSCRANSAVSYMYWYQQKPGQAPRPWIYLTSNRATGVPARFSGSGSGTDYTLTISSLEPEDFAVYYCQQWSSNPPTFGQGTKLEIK" class="Not met"

Q. Textbook exercise: given the entry CP09D03/Vκ8 S29A (antibody, IgG4, V domains shown, IgG4 (S241P), kappa) VH: EVQLLESGGGLVQPGGSLRLSCAASGFTFSSHAISWVRQAPGKGLEWVATISSGGTYTYYPDSVKGRFTISRDNSKNTLYLQMNSLKAEDTAMYYCARHDFDYDAAWFAYWGQGTLVTVSS VL: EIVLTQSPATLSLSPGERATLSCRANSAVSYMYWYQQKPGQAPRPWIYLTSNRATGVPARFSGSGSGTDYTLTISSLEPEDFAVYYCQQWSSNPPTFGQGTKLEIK , state whether its relative KD to parent is greater than or equal to 1.
A. Met

Q. Textbook exercise: given the entry CP08B03/Vκ8 S29A (antibody, IgG4, V domains shown, IgG4 (S241P), kappa) VH: EVQLLESGGGLVQPGGSLRLSCAASGFTFTAHAISWVRQAPGKGLEWVATISSGGTYTYYPDSVKGRFTISRDNSKNTLYLQMNSLKAEDTAMYYCARHDFDYDAAWFAYWGQGTLVTVSS VL: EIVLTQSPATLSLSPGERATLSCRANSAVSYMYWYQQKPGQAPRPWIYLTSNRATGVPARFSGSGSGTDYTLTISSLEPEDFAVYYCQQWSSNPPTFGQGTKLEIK , state whether its relative KD to parent is greater than or equal to 1.
A. Met

Q. Textbook exercise: given the entry CP08C01/Vκ8 S29A (antibody, IgG4, V domains shown, IgG4 (S241P), kappa) VH: EVQLLESGGGLVQPGGSLRLSCAASGYSFSNHGMSWVRQAPGKGLEWVATISSGGTYTYYPDSVKGRFTISRDNSKNTLYLQMNSLKAEDTAMYYCARHDFDYDAAWFAYWGQGTLVTVSS VL: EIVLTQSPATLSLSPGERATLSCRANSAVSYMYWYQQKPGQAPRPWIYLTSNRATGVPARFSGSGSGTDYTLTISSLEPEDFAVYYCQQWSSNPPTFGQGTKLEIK , state whether its relative KD to parent is greater than or equal to 1.
A. Not met

Q. Textbook exercise: given the entry CP09A04/Vκ8 S29A (antibody, IgG4, V domains shown, IgG4 (S241P), kappa) VH: EVQLLESGGGLVQPGGSLRLSCAASGFSFNAHAMSWVRQAPGKGLEWVATISSGGTYTYYPDSVKGRFTISRDNSKNTLYLQMNSLKAEDTAMYYCARHDFDYDAAWFAYWGQGTLVTVSS VL: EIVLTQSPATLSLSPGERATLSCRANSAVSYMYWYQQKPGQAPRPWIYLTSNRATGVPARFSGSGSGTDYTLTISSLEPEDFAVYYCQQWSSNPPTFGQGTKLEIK , state whether its relative KD to parent is greater than or equal to 1.
A. Met
